IC50 values, listed per item
target: UniProt P29275; test: cAMP HTRF functional assay, recombinant HEK293 cells expressing human A2B receptor, agonist NECA; format: cell-based; parameters: expressed in transfected cells; host or cells: HEK293
outcomeMeasure: IC50

>>> df
                                    compound  outcomemeasure  valuemeasured
 0  COc1ccc(C2=CCOCC2)c2ncc(NC(=O)c3cnc(C)o3)nc12 [compound 132]            IC50       < 100 nM
 1  COc1ccc(C2=CCOCC2)c2ncc(NC(=O)c3cnc(C)s3)nc12 [compound 134]            IC50       < 100 nM
 2  CCCCc1ccc(OC)c2nc(NC(=O)N3CCC(C)(O)CC3)cnc12 [compound 108]            IC50      > 1000 nM
 3  COc1ccc(-c2ccccc2F)c2ncc(NC(=O)C3CC3)nc12 [compound 120]            IC50       < 100 nM
 4  COc1ccc(C2=CCOCC2)c2ncc(NC(=O)c3cnc[nH]3)nc12 [compound 159]            IC50       < 100 nM
 5  COc1ccc(-c2cnn(Cc3ccccn3)c2)c2ncc(NC(=O)N3CCC(C)(O)CC3)nc12 [compound 114]            IC50      > 1000 nM
 6  COc1ccc(C2CCOCC2)c2ncc(NC(=O)c3cnn(C)c3)nc12 [compound 68]            IC50      > 1000 nM
 7  COc1ccc(-c2ccccc2)c2ncc(NC(=O)c3cnc[nH]3)nc12 [compound 160]            IC50       < 100 nM
 8  COc1ccc(-c2ccc(F)cc2)c2ncc(NC(=O)C3CC3)nc12 [compound 126]            IC50       < 100 nM
 9  COCCOc1cccc(-c2ccc(OC)c3nc(NC(=O)c4cnc(C)o4)cnc23)c1 [compound 148]            IC50       < 100 nM
10  COCCOc1cccc(-c2ccc(OC)c3nc(NC(=O)c4cnc(C)s4)cnc23)c1 [compound 151]            IC50      > 1000 nM
11  COc1ncc(-c2ccccc2)c2ncc(NC(=O)N3CCC(C)(O)CC3)nc12 [compound 27]            IC50      > 1000 nM
12  COc1ccc(-c2cccnc2)c2ncc(NC(=O)C3CC3)nc12 [compound 121]            IC50      < 1000 nM
13  COc1ccc(C2=CCOCC2)c2ncc(NC(=O)c3coc(CN)c3)nc12 [compound 142]            IC50      > 1000 nM
14  COc1ccc(C2CCOCC2)c2ncc(NC(=O)c3cnc(C)o3)nc12 [compound 130]            IC50       < 100 nM
15  COc1ccc(C2=CCOC2)c2ncc(NC(=O)C3CC3)nc12 [compound 141]            IC50       < 100 nM
16  COc1ccc(C2=CCOCC2)c2ncc(NC(=O)C3(N)CC3)nc12 [compound 137]            IC50      > 1000 nM
17  COCCOCc1cccc(-c2ccc(OC)c3nc(NC(=O)N4CCC(C)(O)CC4)cnc23)c1 [compound 118]            IC50      > 1000 nM
18  COc1ccc(-c2ccccc2F)c2ncc(NC(=O)c3cnc(C)o3)nc12 [compound 129]            IC50       < 100 nM
19  COc1ncc(-c2ccc(OC)c3nc(NC(=O)C4CC4)cnc23)cn1 [compound 156]            IC50      > 1000 nM
20  COc1ccc(-c2cccnc2)c2ncc(NC(=O)c3cnc(C)o3)nc12 [compound 138]            IC50       < 100 nM
21  COc1ccc(-c2ccccc2)c2ncc(NC(=O)c3cnc(C)o3)nc12 [compound 105]            IC50       < 100 nM
22  COc1ccc(C2=CCOCC2)c2ncc(NC(=O)c3cnn(C)c3)nc12 [compound 135]            IC50       < 100 nM
23  COc1ccc(C2=CCOCC2)c2ncc(NC(=O)N3CCC(C)(O)CC3)nc12 [compound 109]            IC50      > 1000 nM

* * *

target: A2B receptors (Homo sapiens, UniProt P29275); test: cAMP HTRF functional assay, recombinant HEK293 cells expressing human A2B receptor, agonist NECA; assay type: cell-based; design: expressed in transfected cells; host or cells: HEK293
Sequence (P29275 whole entry): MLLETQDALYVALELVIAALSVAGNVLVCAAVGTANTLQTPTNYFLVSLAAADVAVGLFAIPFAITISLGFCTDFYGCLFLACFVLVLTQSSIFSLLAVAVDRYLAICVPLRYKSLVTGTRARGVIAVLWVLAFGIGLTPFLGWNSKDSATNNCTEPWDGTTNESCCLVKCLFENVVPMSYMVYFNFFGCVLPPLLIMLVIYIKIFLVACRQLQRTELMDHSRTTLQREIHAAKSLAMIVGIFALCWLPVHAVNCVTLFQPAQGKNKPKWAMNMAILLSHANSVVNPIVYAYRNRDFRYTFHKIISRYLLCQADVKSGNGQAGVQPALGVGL
IC50 values, listed per item
outcomeMeasure: IC50

                                   compound                              systemtested  valuemeasured
0  COc1ccc(C2CCOCC2)c2ncc(NC(=O)N3CCC(C)(O)CC3)nc12 [compound 5]  A2B receptors (Homo sapiens, UniProt P29275)      > 1000 nM
1  COc1ccc(-c2ccc(F)cc2)c2ncc(NC(=O)c3cnc(C)o3)nc12 [compound 131]  A2B receptors (Homo sapiens, UniProt P29275)       < 100 nM
2  COc1ncc(C2CCOCC2)c2ncc(NC(=O)C3CC3)nc12 [compound 106]  A2B receptors (Homo sapiens, UniProt P29275)       < 100 nM
3  COc1ccc(C2=CCOCC2)c2ncc(NC(=O)c3csc(N)n3)nc12 [compound 139]  A2B receptors (Homo sapiens, UniProt P29275)      > 1000 nM
4  COc1ccc(-c2cc(F)ccc2F)c2ncc(NC(=O)C3CC3)nc12 [compound 124]  A2B receptors (Homo sapiens, UniProt P29275)      > 1000 nM
5  COc1ccc(-c2cccc(F)c2F)c2ncc(NC(=O)C3CC3)nc12 [compound 123]  A2B receptors (Homo sapiens, UniProt P29275)       < 100 nM
6  C#CCC1(O)CCN(C(=O)Nc2cnc3c(C4CCOCC4)cnc(OC)c3n2)CC1 [compound 103]  A2B receptors (Homo sapiens, UniProt P29275)      > 1000 nM
7  COc1ccc(-c2cnn(C3CN(C(=O)OC(C)(C)C)C3)c2)c2ncc(NC(=O)N3CCC(C)(O)CC3)nc12 [compound 116]  A2B receptors (Homo sapiens, UniProt P29275)      > 1000 nM

* * *

IC50 values, listed per item
molecular target: human A2A receptor (Homo sapiens, UniProt P29274); construct: expressed in transfected cells; host or cells: HEK293; test: cAMP HTRF functional assay, recombinant HEK293 cells expressing human A2A receptor, agonist NECA; type: cell-based
Sequence (P29274 whole entry): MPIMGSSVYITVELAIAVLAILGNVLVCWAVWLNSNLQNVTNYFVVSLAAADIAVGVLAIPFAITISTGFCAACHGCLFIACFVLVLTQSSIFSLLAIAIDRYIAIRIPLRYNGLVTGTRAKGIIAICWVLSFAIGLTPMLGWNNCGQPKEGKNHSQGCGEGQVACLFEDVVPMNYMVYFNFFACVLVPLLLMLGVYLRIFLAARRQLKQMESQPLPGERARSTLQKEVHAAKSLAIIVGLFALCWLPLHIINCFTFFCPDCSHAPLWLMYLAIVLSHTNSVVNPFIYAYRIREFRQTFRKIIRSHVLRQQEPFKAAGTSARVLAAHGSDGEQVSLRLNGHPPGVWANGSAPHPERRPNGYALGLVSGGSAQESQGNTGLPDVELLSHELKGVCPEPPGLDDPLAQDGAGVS
outcomeMeasure: IC50

>>> print(df.to_string())
                                linenotation  valuemeasured
 0  COc1ccc(C2=CCOCC2)c2ncc(NC(=O)c3nnc(C)s3)nc12       < 100 nM
 1  COc1ccc(-c2cc(F)ccc2F)c2ncc(NC(=O)C3CC3)nc12        < 10 nM
 2  COc1ccc(-c2cnn(C3CN(C(=O)OC(C)(C)C)C3)c2)c2ncc(NC(=O)N3CCC(C)(O)CC3)nc12       < 100 nM
 3  COc1ccc(C2=CCOCC2)c2ncc(NC(=O)C3(C(=O)N(C)C)CC3)nc12       < 100 nM
 4  COc1ccc(C2=CCOCC2)c2ncc(NC(=O)c3cnc(C)s3)nc12        < 10 nM
 5  COc1ccc(C2CCOCC2)c2ncc(NC(=O)c3cnc(C)o3)nc12        < 10 nM
 6  COc1ccc(-c2ccccc2F)c2ncc(NC(=O)C3CC3)nc12        < 10 nM
 7   COc1ncc(C2CCOCC2)c2ncc(NC(=O)C3CC3)nc12        < 10 nM
 8  COc1ccc(N2CCCCCC2)c2ncc(NC(=O)C3CC3)nc12       < 100 nM
 9  COc1ccc(-c2cnn(C(F)F)c2)c2ncc(NC(=O)N3CCC(C)(O)CC3)nc12       < 100 nM
10  C#CCC1(O)CCN(C(=O)Nc2cnc3c(C4CCOCC4)cnc(OC)c3n2)CC1        < 10 nM
11  COCCOc1cccc(-c2ccc(OC)c3nc(NC(=O)c4cnc(C)o4)cnc23)c1        < 10 nM
12  CCCCc1ccc(OC)c2nc(NC(=O)N3CCC(C)(O)CC3)cnc12       < 100 nM

* * *

pIC50 values, listed per item
target: human A3 receptor (Homo sapiens, UniProt P0DMS8); test: cAMP HTRF functional assay, recombinant CHO cells expressing human A3 receptor, forskolin and agonist IB-MECA
Sequence (P0DMS8 whole entry): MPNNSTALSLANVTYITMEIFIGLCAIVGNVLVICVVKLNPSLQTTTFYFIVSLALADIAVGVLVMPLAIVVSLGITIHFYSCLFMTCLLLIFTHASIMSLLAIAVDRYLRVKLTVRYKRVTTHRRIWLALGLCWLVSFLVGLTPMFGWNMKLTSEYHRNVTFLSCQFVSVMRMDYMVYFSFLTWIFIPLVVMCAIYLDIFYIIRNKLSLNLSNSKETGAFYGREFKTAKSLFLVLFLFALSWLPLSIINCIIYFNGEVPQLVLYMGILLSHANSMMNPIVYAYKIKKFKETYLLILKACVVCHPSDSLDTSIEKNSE
pIC50: −log10 of the molar value.
outcomeMeasure: pIC50

In [3]: df
Out[3]:
                                linenotation  outcomemeasure  valuemeasured
 0  COc1ccc(-c2ccccc2)c2ncc(NC(=O)N3CCC(C)(O)CC3)nc12           pIC50         < 6.00
 1  COc1ccc(-c2ccccc2)c2ncc(NC(=O)C3(C(=O)N(C)C)CC3)nc12           pIC50         > 6.00
 2  COCCOCc1cccc(-c2ccc(OC)c3nc(NC(=O)N4CCC(C)(O)CC4)cnc23)c1           pIC50         < 6.00
 3  COc1ccc(C2=CCOCC2)c2ncc(NC(=O)c3cnc(C)s3)nc12           pIC50         < 6.00
 4  COc1ncc(-c2ccc(OC)c3nc(NC(=O)C4CC4)cnc23)cn1           pIC50         < 6.00
 5  COc1ccc(C2CCOCC2)c2ncc(NC(=O)N3CCC(C)(O)CC3)nc12           pIC50         < 6.00
 6  COc1ccc(-c2ccccc2)c2ncc(NC(=O)c3cnc(C)o3)nc12           pIC50         > 6.00
 7  COc1ccc(-c2cccnc2)c2ncc(NC(=O)C3CC3)nc12           pIC50         > 6.00
 8  COCCOc1cccc(-c2ccc(OC)c3nc(NC(=O)C4CC4)cnc23)c1           pIC50         > 6.00
 9  COc1ccc(N2CCCCCC2)c2ncc(NC(=O)C3CC3)nc12           pIC50         < 6.00
10  COc1ncc(-c2ccccc2)c2ncc(NC(=O)N3CCC(C)(O)CC3)nc12           pIC50         < 6.00
11  COc1ccc(-c2ccc(F)cc2)c2ncc(NC(=O)c3cnc(C)o3)nc12           pIC50         > 6.00
12  COc1ccc(-c2cccnc2)c2ncc(NC(=O)c3cnc(C)o3)nc12           pIC50         < 6.00
13   COc1ccc(C2=CCOC2)c2ncc(NC(=O)C3CC3)nc12           pIC50         > 6.00
